Exercise: state measured growth for each of the molecules provided.
- System: T-47D breast
- test.protocol: NCI-60 one-dose screen, 48 h (100 = growth as untreated, 0 = no growth, -100 = all killed)
- study.conditions: 10 µM unless noted
Compounds without any hit were thinned out: in the full panel of roughly 83,000, 20% have a hit.
Just the number please, in %, no unit attached.

Let me know recorded growth for `CCCCc1c(CCC)c(=N)c2ccccc2n1C` , thanks.
85.9

Assign growth to the following record: `Nc1ccc(-c2ccc(-c3ccccc3N)c3[nH]c4ccccc4c23)cc1`
15.2

Name the recorded growth of the molecule listed here: COC(=O)C1(C)CCC[C@]2(C)[C@H]3C[C@H]4C(C(C)C)=C[C@]3(CC[C@@H]12)[C@H]1[C@@H]4[C@@H](OCC#CCN2CCOCC2)CC[C@@H]1OCC#CCN1CCOCC1 (stereo partly drawn)
64.5
